Target: UniProt:Q96GD4
Sequence (Q96GD4 whole entry): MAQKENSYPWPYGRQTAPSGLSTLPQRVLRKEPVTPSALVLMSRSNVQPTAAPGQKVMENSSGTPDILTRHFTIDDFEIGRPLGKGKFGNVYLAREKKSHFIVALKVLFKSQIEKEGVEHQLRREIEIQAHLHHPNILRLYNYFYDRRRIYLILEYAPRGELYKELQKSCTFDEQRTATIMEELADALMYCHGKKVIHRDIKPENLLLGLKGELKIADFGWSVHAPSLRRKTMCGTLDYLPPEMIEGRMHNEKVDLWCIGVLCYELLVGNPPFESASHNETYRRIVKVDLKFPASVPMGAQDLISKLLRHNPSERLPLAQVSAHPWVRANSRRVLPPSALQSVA
Observed property: pKd
Answers are plain numbers, as −log10 of the molar value.

[Q] State its pKd on UniProt:Q96GD4: `CCOC(=O)C1=C(C)NC(C)=C(C(=O)OC)[C@H]1c1cccc(Cl)c1Cl`
[A] 5.94

# credit: BindingDB's records for doi:10.1111/cbdd.12728
